Reference source for all entries: patent US20120135923A1

Target: hMC5-R (human) (UniProt P33032)
Sequence (P33032 whole entry): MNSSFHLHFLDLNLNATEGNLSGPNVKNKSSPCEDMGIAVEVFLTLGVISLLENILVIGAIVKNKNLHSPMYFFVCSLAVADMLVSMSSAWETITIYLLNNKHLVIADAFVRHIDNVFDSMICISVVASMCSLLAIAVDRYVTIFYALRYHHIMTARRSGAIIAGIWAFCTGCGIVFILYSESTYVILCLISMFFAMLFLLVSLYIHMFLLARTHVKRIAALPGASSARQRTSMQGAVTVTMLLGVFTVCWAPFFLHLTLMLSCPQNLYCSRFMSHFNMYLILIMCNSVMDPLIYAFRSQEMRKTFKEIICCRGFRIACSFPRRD
Assay: cell-based or functional assay
Bridge positions count the residues as written; N and C are the ends. Square brackets hold non-standard residues; d marks the D form. Ends that are not written are not given here. d2Nal = N[C@H](Cc1ccc2ccccc2c1)C(=O)O; Pen = CC(C)(S)[C@H](N)C(=O)O; Nle = CCCC[C@H](N)C(=O)O; Ahx = NCCCCCC(=O)O; GABA = NCCCC(=O)O; βAla = NCCC(=O)O
Entry flag: class 1 if cAMP EC50 reaches 0.02 µM; class 0 if it does not.

Examples with answers:
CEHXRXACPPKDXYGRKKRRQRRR (N-terminal acetyl; X4=D-2-Nal; X6=1-Nal; X13=β-Ala; Cys1-Cys8 disulfide; C-terminal amide)    class 1
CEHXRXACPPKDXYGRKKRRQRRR (N-terminal acetyl; X4=D-2-Nal; X6=2-Nal; X13=β-Ala; Cys1-Cys8 disulfide; C-terminal amide)    class 1
Ac-RCH[dF]RW[GABA][Pen]-NH2 (disulfide 2-8; SMILES CC(=O)N[C@@H](CCCNC(=N)N)C(=O)N[C@H]1CSSC(C)(C)[C@@H](C(N)=O)NC(=O)CCCNC(=O)[C@H](Cc2c[nH]c3ccccc23)NC(=O)[C@H](CCCNC(=N)N)NC(=O)[C@@H](Cc2ccccc2)NC(=O)[C@H](Cc2c[nH]cn2)NC1=O) [Ac-Arg-c(Cys-His-D-Phe-Arg-Trp-Gaba-Pen)-NH2]    class 1

Given [dF]CH[d(Et)Tyr]RW[βAla][dC]T-NH2 (disulfide 2-8) [D-Phe-c(Cys-His-D-(Et)Tyr-Arg-Trp-β-Ala-D-Cys)-Thr-NH2] , state whether its cAMP EC50 is at least 0.02 µM. class 0

# repeat for Ac-[Nle]CH[d2Nal]RW[Ahx]C-NH2 (disulfide 2-8) [Ac-Nle-c(Cys-His-D-2-Nal-Arg-Trp-Ahx-Cys)-NH2] class 0
